- Experiment: yeast display, Sf9 membrane polyspecificity reagent, FACS + sequencing; frameworks hold sequencing errors
Endpoint name: polyreactivity (PSR sort gate)

The following sequences have reported results that may help.
Sequence data	polyreactivity (PSR sort gate)
QGQLVESGGGLVQAGGSLLLSCAASGRIFTGKAMGWSRQAPGKERELGAAIDWSGGSTYYADSVKGRFTISRDNAKNTVYLQMNSLKPEDTAVYYCNATYSNSAVGYLGFDYWGQGTQVTVSS	low polyreactivity
QVQLVESGGGLLQAGGSLRLSCAASGRIYSIYAMGWYRQAPGKERELVASITGSGGTTYYADSVKGRFTISRDIAKNTVYLQMNSLKPEDTAVYYCAAVFYGFVGYYNEDYWGQGSQVTVSS	low polyreactivity
KVQVVESGGGLVQAGGSLRLSCAASGSTFYYNAMGWYTQAPGKERELVAAITGSGTGTNYADSVKGRFTISRDNAKNTVYLQMNSLKPEDTAVYYCAADYVWRGDPINSYLSWYVYWGQGTQVTVSS	low polyreactivity
QVQLVESGGGLVQAGGSLRLSCAASGRTFLYYAMGWYRQAPGKERELVAGITSGGSTNYADSVKGRFTISRDNAKNTVYLQMNSLKPEDTAVYYCAVDQGYSRTADVNYDYWGQGTQVTVSS	low polyreactivity
QVQLVESGGGLVQAGGSLRLSCAASGFIFRDNAMGWYRQAPGKERELVAAISERGGRTYYADSVKGRFTISRDNAKNTVYLQMNSLKPEDTAVYYCAAEDIANFYYWGQGTQVTVSS	high polyreactivity
QVQLVESGGGLVQAGGSLRLSCAASGRTFDTYAMGWYRQAPGKERELVAAISTTGRTYYADSVKGRFTISRDNAKNTVYLQMNSLKPEDTALYYCATDPTRSPTSDWGYYYWGQGTQVTVSS	low polyreactivity
QVQLVESGGVLVQAGGSLRLSCAASGSTFTDYAMGWYRQAPGKERELVAAITDSGGRTYYADSVKGRFTISRDNAKNTVYLQMNSLKPEDTAVYYCATEDDRWYYWGQGTQVTVSS	high polyreactivity
QVQLVESGGGLVQAGCSLRLSCAASGRTFVYNAMGWYRKAPGKERELVAGITGSGDSTYYADSVKGRFTISRDNAKNTVYLQMNSMKPEDTAVYYCNQLVEEDYWGQGTQVTVSS	low polyreactivity
QVQLVESGGGLVQAGGSLRLSCAASGRIFGHYAMGWYRQAPGKERELVAAIRYSAGRTYYAGSVKGRFTISRDNAKNTVYLQMNSLKPEDTAVYYCAKTSRYLTGGGDYWGQGTQVTVSS	high polyreactivity
QVQLEESGGGLVQAGGSLRLSCAPSGFIFAWYAMGCYRQAPGKERELVATISSSGARTYYADSVKGRFTISRDNAKNTVYLQMNSLKPEDTAVYYCAVGSVGRLKFYYWGQGTQVTVSS	high polyreactivity

I'd like to know its polyreactivity (PSR sort gate). The sequence in question is `QVHLVESGGGLVQAGGSLRLSCAASGSTFSSYAMGWYRQAPGKERELVAAINWSGTRTYYADSVKGRFTISRDNAKNTVYLQMNSLKPEDTAVYYCAAPGDGETADYDYWGQGTQVTVSS`
low polyreactivity

Just for reference, the nanobody polyreactivity screen of Harvey et al. (2022) is where these values come from.
